Target: MYO3A (human) (UniProt Q8NEV4)
Sequence (Q8NEV4 whole entry, looked up): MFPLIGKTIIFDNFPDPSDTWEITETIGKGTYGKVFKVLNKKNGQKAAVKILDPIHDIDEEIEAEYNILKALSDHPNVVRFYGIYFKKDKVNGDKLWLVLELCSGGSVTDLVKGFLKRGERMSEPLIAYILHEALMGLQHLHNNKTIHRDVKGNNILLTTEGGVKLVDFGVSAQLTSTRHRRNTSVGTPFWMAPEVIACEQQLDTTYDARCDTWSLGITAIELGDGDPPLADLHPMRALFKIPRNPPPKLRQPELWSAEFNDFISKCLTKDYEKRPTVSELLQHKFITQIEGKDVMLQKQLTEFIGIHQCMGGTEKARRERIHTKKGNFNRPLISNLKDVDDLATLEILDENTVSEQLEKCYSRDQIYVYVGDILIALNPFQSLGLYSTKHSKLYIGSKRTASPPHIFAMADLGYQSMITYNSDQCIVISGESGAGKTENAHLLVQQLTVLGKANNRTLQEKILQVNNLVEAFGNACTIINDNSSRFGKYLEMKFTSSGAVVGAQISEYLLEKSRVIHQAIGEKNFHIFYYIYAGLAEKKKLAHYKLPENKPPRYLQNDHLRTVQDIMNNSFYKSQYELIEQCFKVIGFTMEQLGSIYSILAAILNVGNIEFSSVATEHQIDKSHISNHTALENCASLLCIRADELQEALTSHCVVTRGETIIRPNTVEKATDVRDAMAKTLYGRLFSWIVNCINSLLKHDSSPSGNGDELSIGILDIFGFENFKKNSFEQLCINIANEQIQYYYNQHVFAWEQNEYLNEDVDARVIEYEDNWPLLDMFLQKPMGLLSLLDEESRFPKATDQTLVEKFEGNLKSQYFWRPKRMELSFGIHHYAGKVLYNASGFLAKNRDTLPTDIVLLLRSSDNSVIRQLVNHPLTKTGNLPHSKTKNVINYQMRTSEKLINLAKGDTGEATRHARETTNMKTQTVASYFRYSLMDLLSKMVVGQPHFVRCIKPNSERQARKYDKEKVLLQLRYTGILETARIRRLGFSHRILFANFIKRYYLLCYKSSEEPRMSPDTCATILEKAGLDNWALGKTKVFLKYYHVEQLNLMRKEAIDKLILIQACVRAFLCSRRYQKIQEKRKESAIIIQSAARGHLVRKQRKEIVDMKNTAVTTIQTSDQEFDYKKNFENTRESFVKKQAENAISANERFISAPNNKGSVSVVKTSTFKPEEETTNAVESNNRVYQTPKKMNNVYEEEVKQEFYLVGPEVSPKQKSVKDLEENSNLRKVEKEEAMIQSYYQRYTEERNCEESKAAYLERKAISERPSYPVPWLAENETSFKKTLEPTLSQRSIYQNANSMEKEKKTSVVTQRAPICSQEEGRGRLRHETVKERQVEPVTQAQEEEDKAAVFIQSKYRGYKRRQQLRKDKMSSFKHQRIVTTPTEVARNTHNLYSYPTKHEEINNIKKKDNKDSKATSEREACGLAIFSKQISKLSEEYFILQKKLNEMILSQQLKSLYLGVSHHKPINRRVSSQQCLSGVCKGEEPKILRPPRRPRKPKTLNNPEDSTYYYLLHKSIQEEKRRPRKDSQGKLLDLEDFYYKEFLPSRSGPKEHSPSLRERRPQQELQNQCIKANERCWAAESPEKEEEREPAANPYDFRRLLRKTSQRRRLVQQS
Test: KINOMEscan competition binding
Details: compound 10.0 µM
Decide using kinase still bound, per cent of control alone. Strictly below 70%: criterion met. Equal to or above 70%: criterion not met.

1. C[C@@H](Oc1cc(-c2cnn(C3CCNCC3)c2)cnc1N)c1c(Cl)ccc(F)c1Cl: criterion met
2. O=C1NC(=O)/C(=C/c2ccc3nccc(-c4ccncc4)c3c2)S1: criterion not met
3. COc1cc(C(=O)N2CCC(N3CCN(C)CC3)CC2)ccc1Nc1ncc2c(n1)N(C)c1ccccc1C(=O)N2C: criterion not met

Asked: API: query returns whether the compound falls strictly under 70% in kinase still bound, per cent of control. Query: CNC(=O)c1ccc(Nc2cc(Nc3ccccc3S(=O)(=O)C(C)C)c3cc[nH]c3n2)nc1
Given back: criterion not met

Values were extracted from the kinase profiling compilation of Christmann-Franck et al. (2016).
